Source of measurements: patent US20250353921A1

Target: T1, human OX40-ECD-his (human, UniProt P43489 29-214)
T1 construct: whole entry named
T1 sequence: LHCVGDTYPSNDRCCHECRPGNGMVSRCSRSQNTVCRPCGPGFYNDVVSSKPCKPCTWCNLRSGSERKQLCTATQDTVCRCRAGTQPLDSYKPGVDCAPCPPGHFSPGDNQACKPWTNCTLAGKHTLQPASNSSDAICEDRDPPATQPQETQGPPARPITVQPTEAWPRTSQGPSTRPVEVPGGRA
Test: ELISA, scFv supernatant on coated human OX40-ECD-his, anti-c-myc detection
measured_quantity: binding result

binder="MAB9 scFv clone (scFv) scFv: QVTLKESGPALVKPTQTLTLTCSFSGFSLSTSGMGVGWIRQPPGKALEWIAHIWWDDDKYYNTALKTRLTISKDTSKNQVVLTMTNMDPVDTATYYCARIDWDGFAYWGQGTLVTVSSGGGGSGGGGSGGGGSEIVLTQSPATLSLSPGERATLSCRASSSVSYMHWYQQKPGQAPRPWIYATSNRATGIPARFSGSGSGTDYTLTISSLEPEDFAVYYCQAASSSSLEFGQGTKVEIK" measurement=binds
binder="MAB3 scFv clone (scFv) scFv: QVTLKESGPALVKPTQTLTLTCSFSGFSLSTSGMGVGWIRQPPGKALEWIAHIWWDDDKYYNTALKTRLTISKDTSKNQVVLTMTNMDPVDTATYYCARIDWDGFAYWGQGTLVTVSSGGGGSGGGGSGGGGSEIVLTQSPATLSLSPGERATLSCRASSSVSYMHWYQQKPGQAPRPWIYATSNRATGIPARFSGSGSGTDYTLTISSLEPEDFAVYYCQQTIEWPWTFGQGTKVEIK" measurement=binds
binder="MAB7 scFv clone (scFv) scFv: QVTLKESGPALVKPTQTLTLTCSFSGFSLSTSGMGVGWIRQPPGKALEWIAHIWWDDDKYYNTALKTRLTISKDTSKNQVVLTMTNMDPVDTATYYCARIDWDGFAYWGQGTLVTVSSGGGGSGGGGSGGGGSEIVLTQSPATLSLSPGERATLSCRASSSVSYMHWYQQKPGQAPRPWIYATSNRATGIPARFSGSGSGTDYTLTISSLEPEDFAVYYCQQMEFTPWTFGQGTKVEIK" measurement=binds
